Catalogue of AC50 readings, one per entry.
target: Cytochrome P450 3A4 (Homo sapiens); settings: Potency;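 note: confirmatory qHTS run detecting inhibitors and substrates of CYP3A4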
Sequence (P08684 whole entry): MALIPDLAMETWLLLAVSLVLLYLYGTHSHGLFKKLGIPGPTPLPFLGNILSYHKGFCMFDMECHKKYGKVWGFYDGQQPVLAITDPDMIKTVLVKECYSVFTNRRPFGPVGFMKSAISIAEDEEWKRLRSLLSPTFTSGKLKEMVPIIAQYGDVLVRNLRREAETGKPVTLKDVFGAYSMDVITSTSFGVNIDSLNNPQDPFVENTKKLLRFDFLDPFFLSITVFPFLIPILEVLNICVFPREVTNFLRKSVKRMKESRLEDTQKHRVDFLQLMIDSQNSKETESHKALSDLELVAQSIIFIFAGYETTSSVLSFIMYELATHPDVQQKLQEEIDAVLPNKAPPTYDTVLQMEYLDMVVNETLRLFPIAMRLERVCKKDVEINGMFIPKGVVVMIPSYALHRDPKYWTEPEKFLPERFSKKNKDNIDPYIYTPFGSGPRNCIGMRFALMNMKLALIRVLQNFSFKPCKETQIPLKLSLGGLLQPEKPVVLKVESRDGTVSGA

molecule	target_entity	AC50
CCN1C(C)=C(C(=O)OC)C(c2ccccc2)N2C(=O)[C@](O)(C(=O)OC)C(c3ccccc3)C(C(C)=O)=C12 (stereo not given in full)	Cytochrome P450 3A4 (Homo sapiens)	3.98 µM (inconclusive)
COC(=O)CCCCCN1C(=O)NC(CC2CC2)C(C(=O)OCc2ccccc2)=C1C (stereo not given)	Cytochrome P450 3A4 (Homo sapiens)	20 µM (inconclusive)
Nc1ccccc1C(=O)OCCc1ccccc1	Cytochrome P450 3A4 (Homo sapiens)	12.6 µM (inconclusive)
N#Cc1ccc(C23CC4(C2)[C@H](CN(CC2CCCCC2)[C@@H]4c2ccccc2)C3c2ccc(Cl)nc2)cc1 (stereo not given in full)	Cytochrome P450 3A4 (Homo sapiens)	15.8 µM (inconclusive)
CC(C)c1c(O)ccc2c1CCC1[C@@](C)(C=O)CCC[C@@]21C (stereo not given in full)	Cytochrome P450 3A4 (Homo sapiens)	31.6 µM (inconclusive)

Source listed as ChEMBL document CHEMBL1201862.
